# Tested on: A549/ATCC NSCLC
# experiment notes: NCI-60 one-dose screen, 48 h (100 = growth as untreated, 0 = no growth, -100 = all killed)
# setup conditions: 10 µM unless noted
This is part of a sample that, as a whole, favours compounds with a hit. Of some 83,000 tested, about 20% had one in any assay. The source made the active and inactive calls. How the source made its calls: active means growth percent below 10; inactive means the rest.
result type: growth

These solved cases illustrate the format of a correct answer.
Kindly note: A549/ATCC NSCLC, `COC(=O)c1ccccc1Cl` , growth value reported: 99.4% (inactive)

Kindly note: A549/ATCC NSCLC, `O=C(O)C#Cc1ccc(Cl)cc1` , growth value reported: 87.2% (inactive)

Kindly note: A549/ATCC NSCLC, `CC(=O)C[n+]1ccccc1Sc1ccc(Cl)cc1` , growth value reported: 84.6% (inactive)

Others:
Kindly note: A549/ATCC NSCLC, `CC1(C)CC(=O)NC1=O` , growth value reported: 99.3% (inactive)

Kindly note: A549/ATCC NSCLC, `CCCC(=O)Oc1ccc2ccccc2c1` , growth value reported: 97.3% (inactive)

Kindly note: A549/ATCC NSCLC, `COc1ccc(/C=N/Nc2nc3ccccc3s2)cc1` , growth value reported: 93.9% (inactive)

Kindly note: A549/ATCC NSCLC, CCCCCCC(C)CC1=C(O)c2ccccc2C(=O)C1=O (configuration not stated) , growth value reported: 36% (inactive)

Kindly note: A549/ATCC NSCLC, `CC(C)(C)OC(=O)CC1(O)CCCCC1` , growth value reported: 109% (inactive)

Kindly note: A549/ATCC NSCLC, O=C1C2=C(Nc3cc(Cl)ccc3N2)OC1c1c[nH]c2ccc(COc3ccccc3)cc12 (configuration not stated) , growth value reported: 74.2% (inactive)

Kindly note: A549/ATCC NSCLC, `COc1ccc(CCN=Cc2ccc(Cl)cc2)cc1OC` , growth value reported: 108% (inactive)

Kindly note: A549/ATCC NSCLC, `CCn1c2ccc(N(C)C)cc2c2cc(N(C)C)ccc21` , growth value reported: 85.7% (inactive)

Kindly note: A549/ATCC NSCLC, CN1C2C=CC(=O)C1C1C(=O)N(c3ccccc3)C(=O)C12 (configuration not stated) , growth value reported: 106% (inactive)

Kindly note: A549/ATCC NSCLC, `O=c1[nH]c(=O)c2[nH]c(=O)[nH]c2[nH]1` , growth value reported: 104% (inactive)

Kindly note: A549/ATCC NSCLC, CCOC(=O)c1ccc(N2C(=O)C(Cl)(c3ccccc3)C2c2ccco2)cc1 (configuration not stated) , growth value reported: 86.2% (inactive)

Kindly note: A549/ATCC NSCLC, O=C1c2ccccc2C(c2ccccc2)C1c1ccccc1 (configuration not stated) , growth value reported: 91.3% (inactive)

====

# System: MOLT-4 leukemia
# experiment notes: NCI-60 one-dose screen, 48 h
# setup conditions: 10 µM unless noted
The panel holds about 83,000 compounds, 20% with a hit somewhere; the sample as a whole holds those more often. The source made the active and inactive calls. How the source made its calls: active means growth percent below 10; inactive means the rest.
Write down one outcome, taken from 1 (yes) for active, 0 (no) for inactive

Which outcome was entered for the compound `COc1cc(NCCCCCCCNC(C)C)c2nccc(C)c2c1` in this test?
0 (no)

Which outcome was entered for the compound `CC(C)(C)OC(=O)CC1(O)CCCCC1` in this test?
0 (no)

Here's the next entry for you.
Which outcome was entered for the compound `C/C=C(/C(=O)NC(N)=O)C(C)C` in this test?
0 (no)
